Here, each record is paired with measured microsomal CLint at 2 μM data.
Assay: in vitro
Settings: human, microsomes
Please answer in the form of a number followed by its unit of measurement.

O=C(N/N=C/c1cc(Br)cc(Br)c1O)c1ccc(Br)cc1: 13.4 µL/min/mg

Turning now to a further record.
[in] Tell me the measured microsomal CLint at 2 μM of Cc1ccccc1C(=O)N/N=C/c1cc(Br)ccc1O , please.
[out] 28.4 µL/min/mg

* * *

Assay: in vitro
Details: human, microsomes, % remaining at 15 min, with NADPH
MEASURED ENDPOINT: remaining at 0.25 h, 2 μM (%)
Quick reminder: number only, in %, skip the unit.

Cc1ccccc1C(=O)N/N=C/c1cc(Br)ccc1O: 83.2

Turning now to a further record.
[in] Tell me the measured remaining at 0.25 h, 2 μM of O=C(N/N=C/c1cc(Br)cc(Br)c1O)c1ccc(Br)cc1 , please.
[out] 83.9

* * *

Assay: in vitro
Conditions: human, microsomes
MEASURED ENDPOINT: half-life at 2 μM (h)
Quick reminder: number only, in h, skip the unit.

Cc1ccccc1C(=O)N/N=C/c1cc(Br)ccc1O [BHBM]: 0.814

[in] Tell me the measured half-life at 2 μM of O=C(N/N=C/c1cc(Br)cc(Br)c1O)c1ccc(Br)cc1 [D13] , please.
[out] 1.72

* * *

Experiment: in vitro
Settings: mouse, microsomes, % remaining at 45 min, with NADPH
Here, each record is paired with measured remaining at 0.75 h, 2 μM data.
Quick reminder: number only, in %, skip the unit.

O=C(N/N=C/c1cc(Br)cc(Br)c1O)c1ccc(Br)cc1: 64.6

Turning now to a further record.
[in] Tell me the measured remaining at 0.75 h, 2 μM of Cc1ccccc1C(=O)N/N=C/c1cc(Br)ccc1O , please.
[out] 1.52

* * *

Assay: Caco-2 permeability
Settings: human, Caco-2, pH 7.4
Here, each record is paired with measured Papp B→A at 2 h, 5 μM data.

Some compounds with recorded Papp B→A at 2 h, 5 μM:
Cc1ccccc1C(=O)N/N=C/c1cc(Br)ccc1O [BHBM]: 4.71 ×10⁻⁶ cm/s
C[C@H]1O[C@@H](O[C@H]2[C@@H](O)C[C@H](O[C@H]3[C@@H](O)C[C@H](O[C@H]4CC[C@@]5(C)[C@H](CC[C@@H]6[C@@H]5C[C@@H](O)[C@]5(C)[C@@H](C7=CC(=O)OC7)CC[C@]65O)C4)O[C@@H]3C)O[C@@H]2C)C[C@H](O)[C@@H]1O [Digoxin, reference compound]: 20.2 ×10⁻⁶ cm/s

Turning now to a further record.
[in] Tell me the measured Papp B→A at 2 h, 5 μM of O=C(N/N=C/c1cc(Br)cc(Br)c1O)c1ccc(Br)cc1 [D13] , please.
[out] < 1 ×10⁻⁶ cm/s

* * *

Experiment: in vitro
Details: human, Caco-2, pH 7.4
MEASURED ENDPOINT: efflux ratio at 2 h, 5 μM

[in] Tell me the measured efflux ratio at 2 h, 5 μM of CC(C)NCC(O)COc1cccc2ccccc12 (stereo not shown) , please.
[out] 0.57

* * *

Assay: in vitro
Settings: human, microsomes, % remaining at 45 min, with NADPH
Here, each record is paired with measured remaining at 0.75 h, 2 μM data.
Please answer in the form of a number followed by its unit of measurement.

Cc1ccccc1C(=O)N/N=C/c1cc(Br)ccc1O: 51.3%

[in] Tell me the measured remaining at 0.75 h, 2 μM of O=C(N/N=C/c1cc(Br)cc(Br)c1O)c1ccc(Br)cc1 , please.
[out] 73.1%
